- Tested on: Female mice
- test: In vivo hot plate method analgesia test
- particulars: Table 5-2, hot plate 55° C., intraperitoneal, 10 mg/kg dose
- Procedure: Female mice weighing about 20 g were placed on a hot plate apparatus preheated to 55° C., and the latency of the hindfoot response of the mice was used as the pain threshold indicator. […] The basal pain threshold was the average of two measurements, with a 5-min interval between measurements. pain thresholds were measured at 15 m, 30 m, 60 m and 120 m after intraperitoneal injection in each group of mice. […]
Property: Maximum percentage effective analgesia (% MPE); scope: individual molecules
parameter: Maximum percentage effective analgesia (% MPE) (%)

molecule: COc1cccc(C2(O)CCN(C(=O)Cc3cccc(Br)c3)CC2CN(C)C)c1.Cl (stereo not drawn) [FWBE11]
value-measured: 98.31
--
molecule: COc1cccc(C2(O)CCN(C(=O)Cn3ccc4ccccc43)CC2CN(C)C)c1.Cl (stereo not drawn) [FWBE14]
value-measured: 54.23
--
molecule: COc1cccc(C2(O)CCN(C(=O)C3(c4ccccc4)CCCC3)CC2CN(C)C)c1.Cl (stereo not drawn) [FWBE26]
value-measured: 52.96
--
molecule: COc1cccc(C2(O)CCN(C(=O)Cc3ccc(Cl)cc3)CC2CN(C)C)c1.Cl (stereo not drawn) [FWBE19]
value-measured: 73.98
--
molecule: COc1cccc(C2(O)CCN(C(=O)c3cc(F)c(F)cc3F)CC2CN(C)C)c1.Cl (stereo not drawn) [FWBE5]
value-measured: 3
--
molecule: COc1cccc(C2(O)CCN(C(=O)C(C)(C)c3ccccc3)CC2CN(C)C)c1.Cl (stereo not drawn) [FWBE23]
value-measured: 33.72
--
molecule: COc1cccc(C2(O)CCN(C(=O)C3(c4ccccc4)CC3)CC2CN(C)C)c1.Cl (stereo not drawn) [FWBE24]
value-measured: 29.85
--
molecule: COc1cccc(C2(O)CCN(C(=O)Cc3cccc(Cl)c3)CC2CN(C)C)c1.Cl (stereo not drawn) [FWBE9]
value-measured: 86.38
--
molecule: COc1cccc(C2(O)CCN(C(=O)Cc3cccc(OC(F)(F)F)c3)CC2CN(C)C)c1.Cl (stereo not drawn) [FWBE6]
value-measured: 47

----------
- System: Female mice
- test: In vivo hot plate method analgesia test
- particulars: Table 5-2, hot plate 55° C., intraperitoneal, 10 mg/kg dose
parameter: Maximum percentage effective analgesia (% MPE)

compound: COc1cccc(C2(O)CCN(C(=O)Cc3cccc([N+](=O)[O-])c3)CC2CN(C)C)c1.Cl (stereo not drawn) [FWBE22]
value-measured: 72.88%

compound: COc1cccc(C2(O)CCN(C(=O)Cc3cccc(C(F)(F)F)c3)CC2CN(C)C)c1.Cl (stereo not drawn) [FWBE4]
value-measured: 69%

compound: COc1cccc(C2(O)CCN(C(=O)Cc3cccs3)CC2CN(C)C)c1.Cl (stereo not drawn) [FWBE8]
value-measured: 93.0%

----------
- system-name: κ opioid receptor (Homo sapiens)
- Construct: expressed in transfected cells; host or cells: CHO cells (membranes)
- test: Competition binding assay on membranes of CHO cells expressing κ opioid receptor, [3H]-labeled ligand
- particulars: 0.5 h; Table 3-1; 1 μM concentration of compounds; read-out: κOR Binding rate (%)
Counter-ions that a name gives are not always drawn.

molecule: COc1cccc(C2(O)CCN(C(=O)Nc3cccs3)CC2CN(C)C)c1 (stereo not drawn) [FWBF19, hydrochloride]
inhibition at 1 µM [%]: 27.5

molecule: COc1cccc(C2(O)CCN(C(=O)NC(C)C34CC5CC(CC(C5)C3)C4)CC2CN(C)C)c1.Cl (stereo not drawn) [FWBF15, hydrochloride]
inhibition at 1 µM [%]: 10.4

molecule: COc1cccc(C2(O)CCN(C(=O)Nc3ccc(F)c(F)c3)CC2CN(C)C)c1.Cl (stereo not drawn) [FWBF8, hydrochloride]
inhibition at 1 µM [%]: 0
